The measurements presented in this section are drawn from ChEMBL document CHEMBL4033789.

# Test Protocol: Binding affinity to c-KIT1 promoter G-quadruplex DNA (unknown origin) after 1 min by fluorescence titration method
# Assay type: ADME
Measurement Label: Kd (nM)

CCn1c2ccccc2c2cc(-c3nc(-c4ccc(N5CCN(C)CC5)cc4)c(-c4ccc(N5CCN(C)CC5)cc4)n3-c3ccc(OC)cc3)ccc21    800

----------
# Test Protocol: Binding affinity to VEGF promoter G-quadruplex DNA (unknown origin) after 1 min by fluorescence titration method
# Type: ADME
Measurement Label: Kd (nM)

CCn1c2ccccc2c2cc(-c3nc(-c4ccc(N5CCN(C)CC5)cc4)c(-c4ccc(N5CCN(C)CC5)cc4)n3-c3ccc(OC)cc3)ccc21    900

----------
# System: HeLa
# Test Protocol: Cytotoxicity against human HeLa cells assessed as reduction in cell viability after 24 hrs by MTT assay
# Format: functional, cell-based
Measurement Label: IC50 (µM)

CCn1c2ccccc2c2cc(-c3nc(-c4ccc(N5CCN(C)CC5)cc4)c(-c4ccc(F)cc4)[nH]3)ccc21    15.3
CCn1c2ccccc2c2cc(-c3nc(-c4ccc(N5CCN(C)CC5)cc4)c(-c4ccc(N5CCN(C)CC5)cc4)[nH]3)ccc21    2.5
CCn1c2ccccc2c2cc(-c3nc(-c4ccc(N5CCN(C)CC5)cc4)c(-c4ccc(N5CCN(C)CC5)cc4)n3-c3ccc(OC)cc3)ccc21    2.1

----------
# Test Protocol: Binding affinity to 1 uM c-MYC promoter G-quadruplex pu22 DNA (unknown origin) at 1 uM after 1 min by fluorescence spectroscopic analysis
Active and inactive are the calls of the source. No cut-off for these calls is given here.
Classes used: active, inactive

CCn1c2ccccc2c2cc(-c3nc(-c4ccc(N5CCN(C)CC5)cc4)c(-c4ccc(N5CCN(C)CC5)cc4)n3-c3ccc(OC)cc3)ccc21    active
CCn1c2ccccc2c2cc(-c3nc(-c4ccc(N5CCN(C)CC5)cc4)c(-c4ccc(F)cc4)[nH]3)ccc21    active
CCn1c2ccccc2c2cc(-c3nc(-c4ccc(F)cc4)c(-c4ccc(F)cc4)[nH]3)ccc21    active
CCn1c2ccccc2c2cc(-c3nc(-c4ccc(F)cc4)c(-c4ccc(F)cc4)n3-c3ccc(OC)cc3)ccc21    inactive

----------
# Tested on: U2OS
# Test Protocol: Cytotoxicity against human U2OS cells assessed as reduction in cell viability after 24 hrs by MTT assay
# Format: functional, cell-based
Measurement Label: IC50 (µM)

CCn1c2ccccc2c2cc(-c3nc(-c4ccc(N5CCN(C)CC5)cc4)c(-c4ccc(N5CCN(C)CC5)cc4)n3-c3ccc(OC)cc3)ccc21    6.8

----------
# Test Protocol: Binding affinity to BCL2 promoter G-quadruplex DNA (unknown origin) after 1 min by fluorescence titration method
# Format: ADME
Measurement Label: Kd

CCn1c2ccccc2c2cc(-c3nc(-c4ccc(N5CCN(C)CC5)cc4)c(-c4ccc(N5CCN(C)CC5)cc4)n3-c3ccc(OC)cc3)ccc21    800 nM

----------
# Test system: BJ
# Test Protocol: Cytotoxicity against human BJ cells assessed as reduction in cell viability after 24 hrs by MTT assay
# Assay type: cell-based
Measured IC50 values are reported for all entries that follow.
Measurement Label: IC50 (µM)

CCn1c2ccccc2c2cc(-c3nc(-c4ccc(N5CCN(C)CC5)cc4)c(-c4ccc(N5CCN(C)CC5)cc4)[nH]3)ccc21    2.8
CCn1c2ccccc2c2cc(-c3nc(-c4ccc(N5CCN(C)CC5)cc4)c(-c4ccc(F)cc4)[nH]3)ccc21    13.9
CCn1c2ccccc2c2cc(-c3nc(-c4ccc(N5CCN(C)CC5)cc4)c(-c4ccc(N5CCN(C)CC5)cc4)n3-c3ccc(OC)cc3)ccc21    15.9
